# test.system: pooled human IgG (human); also: test concentration or dose not given here
# assay.remarks: cell-based or functional assay
measured.quantity: Enzyme Activity Endpoint Assay (purified): Fc (ng/µL)
Kindly provide the numeric value in ng/µL only, without the unit symbol.

Examples from the recorded data:
PRT-199 (enzyme) MEVVEVWPYGQNPNGKTEILSQTEDSESLQRLRDIEDFQAEKKKQNVVYTKWLDGVDVKDHDFRKIVDGNIAYYATPLLNGRGFYDINKDFNRDSDKCAAAVAANMFHYWLDRNRDNVDRFLRQNPEKHGIIELPDGQLKLSDFLNTYESDDGYRDKSKLFDFISNNFNGPVWTDKLLDNYINGYAYNYKYGRTIEDPTKNTSKINFFKEVFNEKILTNNHSIRNQNEFSVLLSEALYTGKAIGLSYGPAGLRHSLGHIISVWGADLDADGNVVAIYVTDSDDKKLTIGDERVGLKRYKISTDDEGRLRLTAYEETHNTGGQIRGLWTLDTGKQAWADYFDKTEQTGTDQAEQLEHHHHHH	473
PRT-222 (enzyme) MEVVEVWPYGQNPNGKTEILSQTEDSESLQRLRDIEDFQAEKKMQNVVYTKWLDGVDVKDHDFRKIVDGNIAYYATPLLNGRGFYDINKDFNRDSDKCAAAVAANMFHYWLDINRDNVDRFLRQNPEKHGIIELPDGQLKLSDFLNTYESDHGYRDKSKLFDFISNNFNGPVWTDKLLDNYINGYAYNYKYGRTIEDPTKNTSKINFFKEVFNEKILTNNHSIRNQNEFSVLLSEALYTGKAIGLSYGPAGLRHSLGHIISVWGADLDADGNVVAIYVTDSDDKKLTIGDERVGLKRYKISTDDEGRLRLTAYEETHNTGGQIRGLWTLDTGKYAWADYFDKTEQTGTDQAEQLEHHHHHH	78
PRT-207 (enzyme) MEVVEVWPYGQNPNGKTEILSQTEDSESLQRLRDIEDFQAEKKKEGVVYTKWLDGVDVDDHDFRKIVDGNIAYYATPLLNGRGFYDINKDFNRDSDKCAAAVAANMFHYWLDRNRDNVDRFLKQNPEKHGIIELPDGQLKLSDFLNTYESDNGYRDKSKLFDFISNNFNGPVWTDKLLDNYINGYAYNYKYGRTIEDPTKNTSKINFFKEVFNEKILTNNHSIRNYNTFSDLLSEALYTGKAIGLSYGPAGLRHSLGHIISVWGADLDADGNVVAIYVTDSDDKKLTIGDERVGLKRYKVSSDDENRLRLTAYEETHNTGGQIRGIWTLDTGKQAWADYFDKTEQTGTDQAEQLEHHHHHH	249

Proceeding to the next binder to report its Enzyme Activity Endpoint Assay (purified): Fc.
The value of Enzyme Activity Endpoint Assay (purified): Fc measured for the binder PRT-208 (enzyme) MEVVEVWPYGQNPNGKTEILSQTEDSESLQRLRDIEDFQAEKKKENVVYTKWLDGVTVKDHDFRKIVDGNIAYYATPLLNGRGFYDINKDFNRDSDKCAAAVAANMFHYWLDINRDNVDRFLRQNPEKHGIIELPDGQLKLSDFLNTYESDDGYRDKSKLFDFISNNFNGPVWTDKLLDNYINGYGYNYKYGRTIEDPTKNTSKINFFKEVFNEKILTDNHSIRDQNEFSDLLSEALYTGKAIGLSYGPAGLRHSLGHIISVWGADLDADGNVVAIYVTDSDDKKLTIGDERVGLKRYKISYDDEGRARLTAYEEKDNTGGQIRGLWTLDTGKQAWADYFDKTEQTGTDQAEQLEHHHHHH turned out to be 153

Value source: patent US20250027068A1
